# Tested on: Leishmania donovani axenic amastigote parasites
# Method: Leishmania donovani axenic amastigote proliferation assay
# Assay type: cell-based
# Details: axenic amastigotes in vitro, read-out: L. donovani amastigotes EC50
Output True for records whose EC50 is lower than 400 nM, False for records at or above 400 nM.

{"columns": ["Compound", "Answer Label"],
 "data": [
  ["CC(C)c1cnc2nc(-c3cc(NC(=O)c4ccco4)ccc3Cl)[nH]c2c1 [Compound 77]", "False"],
  ["CC(C)CC(=O)Nc1ccc(-c2cnc3nc(-c4cc(NC(=O)c5ccco5)ccc4Cl)[nH]c3c2)cc1 [Compound 13]", "True"],
  ["O=C1NC(=O)C(c2ccc(-c3cnc4nc(-c5cc(NC(=O)c6ccco6)ccc5Cl)[nH]c4c3)cc2)N1 (centres unmarked) [Compound 42]", "False"],
  ["N#Cc1ccc(C(=O)Nc2ccc(Cl)c(-c3nc4ncc(C(F)(F)F)cc4[nH]3)c2)o1 [Compound 281]", "False"],
  ["Cc1cnc2nc(-c3cc(NC(=O)C4(C)CN(C(=O)OC(C)(C)C)C4)ccc3Cl)[nH]c2c1 [Compound 133]", "False"],
  ["CCc1cnc2nc(-c3cc(NC(=O)c4ccco4)ccc3Cl)oc2c1 [Example 419]", "True"],
  ["O=C(Nc1ccc(Cl)c(-c2nc3ncc(C4=CCNCC4)cc3[nH]2)c1)c1ccco1 [Compound 70]", "False"],
  ["COCCOc1ccc(-c2cnc3nc(-c4cc(NC(=O)N5CCCC5)ccc4Cl)[nH]c3c2)cc1 [Compound 303]", "True"]
]}

###

# Tested on: Leishmania donovani axenic amastigote parasites
# Method: Leishmania donovani axenic amastigote proliferation assay
# Assay type: cell-based
# Details: axenic amastigotes in vitro, read-out: L. donovani amastigotes EC50

{"columns": ["Compound Structure", "Bound Sign", "EC50 [µM]"],
 "data": [
  ["Cc1cnc2nc(-c3cc(NC(=O)CO)ccc3Cl)[nH]c2c1", ">", 25],
  ["Cc1cnc2nc(-c3cc(NC(=O)c4cnc(C)cn4)ccc3Cl)[nH]c2c1", "=", 23.8],
  ["Cc1cnc2nc(-c3cc(NC(=O)c4ccns4)ccc3Cl)[nH]c2c1", "=", 3.2],
  ["Cc1cnc2nc(-c3cc(NC(=O)N4CCCC4)ccc3Cl)[nH]c2c1", "=", 1.77],
  ["Cc1cnc2nc(-c3cc(NC(=O)c4ccc(-c5cnccn5)cn4)ccc3Cl)[nH]c2c1", ">", 25],
  ["COC(=O)Nc1ccc(-c2cnc3nc(-c4cc(NC(=O)c5ccco5)ccc4F)oc3c2)cc1", "=", 0.2],
  ["Cc1cnc2nc(-c3cc(NC(=O)c4ccc(CN(C)C)o4)ccc3Cl)[nH]c2c1", ">", 25],
  ["O=C(Nc1ccc(C(F)(F)F)cc1)Nc1ccc(F)c(-c2nc3ncc(-c4ccc(N5CCCCC5)cc4)cc3o2)c1", "=", 15.8],
  ["Cc1cnc2nc(-c3cc(NC(=O)Nc4ccc(C(F)(F)F)cc4)ccc3Cl)[nH]c2c1", ">", 25],
  ["O=C(Nc1ccc(C(F)(F)F)cc1)Nc1ccc(F)c(-c2nc3ncc(-c4ccc(CCN5CCOCC5)cc4)cc3o2)c1", "=", 11.6],
  ["CN(C)C(=O)Nc1ccc(F)c(-c2nc3ncc(Cl)cc3[nH]2)c1", ">", 25],
  ["O=C(Nc1ccc(C(F)(F)F)cc1)Nc1ccc(F)c(-c2nc3ncc(-c4ccc(NCCN5CCOCC5)nc4)cc3o2)c1", ">", 25],
  ["Cc1cnc2nc(-c3cc(NC(=O)c4ccc(S(C)(=O)=O)s4)ccc3Cl)[nH]c2c1", ">", 25],
  ["Cc1cnc2nc(-c3cc(NC(=O)N4CCOCC4)ccc3Cl)[nH]c2c1", ">", 25],
  ["COC(=O)c1ccc(-c2cnc3nc(-c4cc(NC(=O)c5ccco5)ccc4Cl)[nH]c3c2)cc1", "=", 0.234],
  ["Cc1cnc2nc(-c3cc(NC(=O)c4ccc(N5CCOCC5)cc4)ccc3Cl)[nH]c2c1", ">", 24.4]
]}
